Test system: Moraxella catarrhalis
Test: Antibacterial activity against Moraxella catarrhalis BCA 19-5 assessed as inhibition of bacterial growth incubated for 24 hrs by CLSI based broth microdilution method
Assay type: functional
Settings: Moraxella catarrhalis, BCA 19-5, 24 h, read-out: MIC
assayMetric: MIC (µg/mL)
Numbers only, in µg/mL.

CC[C@H]1OC(=O)[C@@](C)(F)C(=O)[C@H](C)[C@@H](O[C@@H]2O[C@H](C)C[C@H](N(C)C)[C@H]2O)[C@](C)(OC)C[C@@H](C)C(=O)[C@H](C)[C@H]2N(CCCOC(=O)Nc3cccc(F)c3C)C(=O)O[C@]12C ... 0.125
CC[C@H]1OC(=O)[C@@](C)(F)C(=O)[C@H](C)[C@@H](O[C@@H]2O[C@H](C)C[C@H](N(C)C)[C@H]2O)[C@](C)(OC)C[C@@H](C)C(=O)[C@H](C)[C@H]2N(CCCOC(=O)Nc3ccccc3[N+](=O)[O-])C(=O)O[C@]12C ... 0.5
CC[C@H]1OC(=O)[C@@](C)(F)C(=O)[C@H](C)[C@@H](O[C@@H]2O[C@H](C)C[C@H](N(C)C)[C@H]2O)[C@](C)(OC)C[C@@H](C)C(=O)[C@H](C)[C@H]2N(CCCOC(=O)Nc3ccc(SC)cc3)C(=O)O[C@]12C ... 0.5
CC[C@H]1OC(=O)[C@@](C)(F)C(=O)[C@H](C)[C@@H](O[C@@H]2O[C@H](C)C[C@H](N(C)C)[C@H]2O)[C@](C)(OC)C[C@@H](C)C(=O)[C@H](C)[C@H]2N(CCCOC(=O)Nc3ccc(Cl)cc3)C(=O)O[C@]12C ... 9.12
CC[C@H]1OC(=O)[C@@](C)(F)C(=O)[C@H](C)[C@@H](O[C@@H]2O[C@H](C)C[C@H](N(C)C)[C@H]2O)[C@](C)(OC)C[C@@H](C)C(=O)[C@H](C)[C@H]2N(CCCOC(=O)Nc3cccc(Cl)c3)C(=O)O[C@]12C ... 0.125

Here's the next entry for you.
// query Entry CC[C@H]1OC(=O)[C@@](C)(F)C(=O)[C@H](C)[C@@H](O[C@@H]2O[C@H](C)C[C@H](N(C)C)[C@H]2O)[C@](C)(OC)C[C@@H](C)C(=O)[C@H](C)[C@H]2N(CCCOC(=O)Nc3cc(C)oc3C(F)(F)F)C(=O)O[C@]12C needs its MIC filled in; supply it.
// result 0.5
